Exercise: state measured pIC50 for each of the compounds provided.
molecular target: PI3K-delta (Homo sapiens); assay: PI3K-delta fluorescence polarization assay; format: biochemical; conditions: read-out: PI3Kδ Avg. IC50
Sequence (O00329 whole entry, species assumed): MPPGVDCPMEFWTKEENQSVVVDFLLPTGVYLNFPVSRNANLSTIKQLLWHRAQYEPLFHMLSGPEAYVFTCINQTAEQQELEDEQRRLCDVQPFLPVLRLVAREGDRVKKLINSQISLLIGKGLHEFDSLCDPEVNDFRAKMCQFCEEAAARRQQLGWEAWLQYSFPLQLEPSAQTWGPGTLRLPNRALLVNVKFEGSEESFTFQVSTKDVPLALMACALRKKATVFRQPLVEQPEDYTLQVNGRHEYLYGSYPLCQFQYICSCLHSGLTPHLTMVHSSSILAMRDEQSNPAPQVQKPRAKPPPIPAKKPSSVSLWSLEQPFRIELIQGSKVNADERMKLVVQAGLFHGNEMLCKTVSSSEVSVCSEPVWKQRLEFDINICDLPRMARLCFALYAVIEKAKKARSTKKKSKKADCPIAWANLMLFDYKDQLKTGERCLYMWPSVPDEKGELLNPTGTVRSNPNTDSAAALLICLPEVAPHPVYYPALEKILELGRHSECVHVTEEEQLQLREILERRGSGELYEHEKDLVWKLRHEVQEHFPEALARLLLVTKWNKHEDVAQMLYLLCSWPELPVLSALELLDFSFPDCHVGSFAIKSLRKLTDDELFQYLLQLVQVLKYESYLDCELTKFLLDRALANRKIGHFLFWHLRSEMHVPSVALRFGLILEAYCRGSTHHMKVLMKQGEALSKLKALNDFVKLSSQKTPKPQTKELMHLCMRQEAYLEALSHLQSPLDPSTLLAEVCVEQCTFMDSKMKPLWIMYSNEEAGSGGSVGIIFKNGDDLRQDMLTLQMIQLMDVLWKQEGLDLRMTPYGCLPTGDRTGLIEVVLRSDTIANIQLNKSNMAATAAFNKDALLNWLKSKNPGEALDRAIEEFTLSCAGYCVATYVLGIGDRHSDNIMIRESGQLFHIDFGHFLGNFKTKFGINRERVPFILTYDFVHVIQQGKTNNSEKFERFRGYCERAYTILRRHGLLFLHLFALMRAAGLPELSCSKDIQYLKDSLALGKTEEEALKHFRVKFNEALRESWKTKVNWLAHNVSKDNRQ
Sequence (P27986 whole entry partner, species assumed): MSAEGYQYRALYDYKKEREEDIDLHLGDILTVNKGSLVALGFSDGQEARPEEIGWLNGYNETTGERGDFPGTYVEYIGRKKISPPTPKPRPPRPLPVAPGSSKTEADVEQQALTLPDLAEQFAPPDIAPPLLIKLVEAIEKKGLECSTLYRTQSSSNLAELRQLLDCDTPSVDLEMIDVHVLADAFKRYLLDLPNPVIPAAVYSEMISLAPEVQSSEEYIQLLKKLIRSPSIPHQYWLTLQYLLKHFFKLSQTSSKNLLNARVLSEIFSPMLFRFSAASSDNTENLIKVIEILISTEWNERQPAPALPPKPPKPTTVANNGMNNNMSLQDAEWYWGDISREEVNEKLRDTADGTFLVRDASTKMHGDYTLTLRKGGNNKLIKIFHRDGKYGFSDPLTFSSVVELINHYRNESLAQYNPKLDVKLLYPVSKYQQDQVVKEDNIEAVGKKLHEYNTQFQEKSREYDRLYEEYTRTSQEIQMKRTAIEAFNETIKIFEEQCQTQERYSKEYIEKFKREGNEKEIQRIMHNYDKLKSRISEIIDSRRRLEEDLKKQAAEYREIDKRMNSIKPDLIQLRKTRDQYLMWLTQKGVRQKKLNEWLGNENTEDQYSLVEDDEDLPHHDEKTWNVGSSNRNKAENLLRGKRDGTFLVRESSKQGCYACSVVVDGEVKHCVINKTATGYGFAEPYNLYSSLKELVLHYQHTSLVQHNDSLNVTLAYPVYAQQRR
Give bare numbers, as −log10 of the molar value.

// worked examples, pIC50 included
[[record]]
compound = "O=C1/C(=C/c2c(-c3ccc(F)cc3)[nH]c3ccccc23)Oc2c1ccc(O)c2O [Example 56]"
recorded_result = 6.97

[[record]]
compound = "COc1ccc2c(c1)c(/C=C1\\Oc3cc(O)cc(O)c3C1=O)cn2CCO [Example 317]"
recorded_result = 8.07

[[record]]
compound = "COc1ccc2c(c1)c(C=C1Oc3cc(O)cc(O)c3C1=O)c(C)n2CCCCl [Example 88]"
recorded_result = 8.46


The record that follows has no pIC50 shown yet.
pIC50 in this record for COc1cc(F)c2[nH]c(-c3c(C)nn(C)c3C)c(/C=C3\Oc4ccc(NC(=O)Nc5ccc(C(=O)N(C)CCN(C)C)cc5)cc4C3=O)c2c1 [Compound 710] : 9.22

The reported measurements were obtained from patent US20090311217A1.
